- experiment_summary: AUC in ICR mouse at 1 mg/kg, iv measured upto 24 hrs by LC-MS/MS method
- Format: ADME, organism-based
- assay_conditions: ICR, in vivo

>  <structure_as_smiles>
C=C1C(=O)[C@]23[C@H](O)[C@H]1CC[C@H]2[C@]12C=CCC(C)(C)[C@H]1[C@H](O)[C@@]3(OCc1cncs1)OC2

>  <AUC at 24 h [ng·h/mL]>
337

$$$$

* * *

- system_tested: NACHT, LRR and PYD domains-containing protein 3 (Mus musculus, UniProt Q8R4B8)
- Sequence (Q8R4B8 whole entry, the tested form may be a part): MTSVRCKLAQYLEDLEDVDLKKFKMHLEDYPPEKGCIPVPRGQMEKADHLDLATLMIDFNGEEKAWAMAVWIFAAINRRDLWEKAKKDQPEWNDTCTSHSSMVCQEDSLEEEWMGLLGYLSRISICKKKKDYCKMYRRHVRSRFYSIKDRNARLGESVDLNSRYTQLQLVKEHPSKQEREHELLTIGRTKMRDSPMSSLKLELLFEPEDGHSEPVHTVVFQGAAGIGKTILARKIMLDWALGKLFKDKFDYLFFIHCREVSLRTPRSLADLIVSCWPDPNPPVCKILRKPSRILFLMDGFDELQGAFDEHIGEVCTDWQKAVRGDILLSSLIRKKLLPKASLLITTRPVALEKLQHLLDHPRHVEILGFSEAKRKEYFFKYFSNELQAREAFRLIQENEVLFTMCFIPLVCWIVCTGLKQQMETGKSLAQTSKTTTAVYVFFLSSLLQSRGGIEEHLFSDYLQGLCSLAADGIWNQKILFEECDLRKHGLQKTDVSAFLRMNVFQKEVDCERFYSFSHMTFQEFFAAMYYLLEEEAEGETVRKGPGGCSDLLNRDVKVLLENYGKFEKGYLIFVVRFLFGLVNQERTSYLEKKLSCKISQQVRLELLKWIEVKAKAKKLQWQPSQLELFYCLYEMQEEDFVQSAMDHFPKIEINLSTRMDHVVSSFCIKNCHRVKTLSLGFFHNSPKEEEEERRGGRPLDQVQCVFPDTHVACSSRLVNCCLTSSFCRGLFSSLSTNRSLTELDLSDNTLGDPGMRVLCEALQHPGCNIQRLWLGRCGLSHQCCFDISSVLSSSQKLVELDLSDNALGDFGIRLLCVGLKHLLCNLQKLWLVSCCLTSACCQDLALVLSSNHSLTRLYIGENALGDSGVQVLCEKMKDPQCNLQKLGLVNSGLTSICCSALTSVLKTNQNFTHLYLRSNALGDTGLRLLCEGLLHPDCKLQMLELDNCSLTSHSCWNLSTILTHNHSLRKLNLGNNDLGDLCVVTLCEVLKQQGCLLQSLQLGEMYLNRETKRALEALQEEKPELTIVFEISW
- experiment_summary: Inhibition of NLRP3 inflammasome activation in LPS/ATP-induced C57BL/6 mouse BMDMs assessed as reduction in IL-1beta secretion preincubated with LPS for 4 hrs followed by compound addition for 30 mins and further stimulated with ATP for 30 mins by ELISA
- Format: cell-based, BMDM
pIC50: −log10 of the molar value.

>  <molecule>
C=C1C(=O)[C@]23[C@H](O)[C@H]1CC[C@H]2[C@@]12CO[C@]3(O)[C@@H](O)[C@@H]1C(C)(C)CC[C@@H]2O [ORIDONIN]

>  <system_tested>
NACHT, LRR and PYD domains-containing protein 3 (Mus musculus, UniProt Q8R4B8)

>  <pIC50>
6.11

$$$$
>  <molecule>
CC(C)n1ccc(S(=O)(=O)NC(=O)Nc2c3c(cc4c2CCC4)CCC3)n1 [INZOMELID]

>  <system_tested>
NACHT, LRR and PYD domains-containing protein 3 (Mus musculus, UniProt Q8R4B8)

>  <pIC50>
7.85

$$$$
>  <molecule>
C=C1C(=O)[C@]23[C@H](O)[C@H]1CC[C@H]2[C@]12C=CCC(C)(C)[C@H]1[C@H](O)[C@@]3(OCC(=O)O)OC2

>  <system_tested>
NACHT, LRR and PYD domains-containing protein 3 (Mus musculus, UniProt Q8R4B8)

>  <pIC50>
6.39

$$$$
>  <molecule>
C=C1C(=O)[C@]23[C@H](O)[C@H]1CC[C@H]2[C@]12C=CCC(C)(C)[C@H]1[C@H](O)[C@@]3(OCCC(=O)N1CCOCC1)OC2

>  <system_tested>
NACHT, LRR and PYD domains-containing protein 3 (Mus musculus, UniProt Q8R4B8)

>  <pIC50>
7.14

$$$$
>  <molecule>
C=C1C(=O)[C@]23[C@H](O)[C@H]1CC[C@H]2[C@]12C=CCC(C)(C)[C@H]1[C@H](O)[C@@]3(OCc1nccs1)OC2

>  <system_tested>
NACHT, LRR and PYD domains-containing protein 3 (Mus musculus, UniProt Q8R4B8)

>  <pIC50>
5.72

$$$$
>  <molecule>
C=C1C(=O)[C@]23[C@H](O)[C@H]1CC[C@H]2[C@]12C=CCC(C)(C)[C@H]1[C@H](O)[C@@]3(OCc1nc(-c3ccccc3)cs1)OC2

>  <system_tested>
NACHT, LRR and PYD domains-containing protein 3 (Mus musculus, UniProt Q8R4B8)

>  <pIC50>
7.09

$$$$
>  <molecule>
C=C1C(=O)[C@]23[C@H](O)[C@H]1CC[C@H]2[C@]12C=CCC(C)(C)[C@H]1[C@H](O)[C@@]3(OCCC(=O)NC1CCOCC1)OC2

>  <system_tested>
NACHT, LRR and PYD domains-containing protein 3 (Mus musculus, UniProt Q8R4B8)

>  <pIC50>
6.53

$$$$
>  <molecule>
C=C1C(=O)[C@]23[C@H](O)[C@H]1CC[C@H]2[C@]12C=CCC(C)(C)[C@H]1[C@H](O)[C@@]3(OCCC(=O)N(CCC)CCC)OC2

>  <system_tested>
NACHT, LRR and PYD domains-containing protein 3 (Mus musculus, UniProt Q8R4B8)

>  <pIC50>
6.75

$$$$
>  <molecule>
C=C1C(=O)[C@]23[C@H](O)[C@H]1CC[C@H]2[C@]12C=CCC(C)(C)[C@H]1[C@H](O)[C@@]3(OCc1cnco1)OC2

>  <system_tested>
NACHT, LRR and PYD domains-containing protein 3 (Mus musculus, UniProt Q8R4B8)

>  <pIC50>
7.00

$$$$
>  <molecule>
C=C1C(=O)[C@]23[C@H](O)[C@H]1CC[C@H]2[C@]12C=CCC(C)(C)[C@H]1[C@H](O)[C@@]3(OCc1cocn1)OC2

>  <system_tested>
NACHT, LRR and PYD domains-containing protein 3 (Mus musculus, UniProt Q8R4B8)

>  <pIC50>
7.01

$$$$
>  <molecule>
C=C1C(=O)[C@]23[C@H](O)[C@H]1CC[C@H]2[C@]12C=CCC(C)(C)[C@H]1[C@H](O)[C@@]3(OCc1ccncc1)OC2

>  <system_tested>
NACHT, LRR and PYD domains-containing protein 3 (Mus musculus, UniProt Q8R4B8)

>  <pIC50>
7.00

$$$$
>  <molecule>
C=C1C(=O)[C@]23[C@H](O)[C@H]1CC[C@H]2[C@]12C=CCC(C)(C)[C@H]1[C@H](O)[C@@]3(OCCC(=O)N1CCCC1)OC2

>  <system_tested>
NACHT, LRR and PYD domains-containing protein 3 (Mus musculus, UniProt Q8R4B8)

>  <pIC50>
6.79

$$$$
>  <molecule>
C=C1C(=O)[C@]23[C@H](O)[C@H]1CC[C@H]2[C@]12C=CCC(C)(C)[C@H]1[C@H](O)[C@@]3(OCCCC(=O)O)OC2

>  <system_tested>
NACHT, LRR and PYD domains-containing protein 3 (Mus musculus, UniProt Q8R4B8)

>  <pIC50>
7.09

$$$$
>  <molecule>
C=C1C(=O)[C@]23[C@H](O)[C@H]1CC[C@H]2[C@]12C=CCC(C)(C)[C@H]1[C@H](O)[C@@]3(OCCC(=O)NC)OC2

>  <system_tested>
NACHT, LRR and PYD domains-containing protein 3 (Mus musculus, UniProt Q8R4B8)

>  <pIC50>
6.67

$$$$
>  <molecule>
C=C1C(=O)[C@]23[C@H](O)[C@H]1CC[C@H]2[C@]12C=CCC(C)(C)[C@H]1[C@H](O)[C@@]3(OCCC(=O)NC1CCCC1)OC2

>  <system_tested>
NACHT, LRR and PYD domains-containing protein 3 (Mus musculus, UniProt Q8R4B8)

>  <pIC50>
6.86

$$$$
>  <molecule>
C=C1C(=O)[C@]23[C@H](O)[C@H]1CC[C@H]2[C@]12C=CCC(C)(C)[C@H]1[C@H](O)[C@@]3(OCCC(=O)N1CCN(C)CC1)OC2

>  <system_tested>
NACHT, LRR and PYD domains-containing protein 3 (Mus musculus, UniProt Q8R4B8)

>  <pIC50>
7.01

$$$$
>  <molecule>
C=C1C(=O)[C@]23[C@H](O)[C@H]1CC[C@H]2[C@]12C=CCC(C)(C)[C@H]1[C@H](O)[C@@]3(OCCC(=O)NC1CCCCC1)OC2

>  <system_tested>
NACHT, LRR and PYD domains-containing protein 3 (Mus musculus, UniProt Q8R4B8)

>  <pIC50>
6.71

$$$$
>  <molecule>
C=C1C(=O)[C@]23[C@H](O)[C@H]1CC[C@H]2[C@]12C=CCC(C)(C)[C@H]1[C@H](O)[C@@]3(OCCC(=O)NCCOC)OC2

>  <system_tested>
NACHT, LRR and PYD domains-containing protein 3 (Mus musculus, UniProt Q8R4B8)

>  <pIC50>
6.54

$$$$
>  <molecule>
C=C1C(=O)[C@]23[C@H](O)[C@H]1CC[C@H]2[C@]12C=CCC(C)(C)[C@H]1[C@H](O)[C@@]3(OCCC(=O)NCCC)OC2

>  <system_tested>
NACHT, LRR and PYD domains-containing protein 3 (Mus musculus, UniProt Q8R4B8)

>  <pIC50>
6.55

$$$$
>  <molecule>
C=C1C(=O)[C@]23[C@H](O)[C@H]1CC[C@H]2[C@]12C=CCC(C)(C)[C@H]1[C@H](O)[C@@]3(OCCC(=O)O)OC2

>  <system_tested>
NACHT, LRR and PYD domains-containing protein 3 (Mus musculus, UniProt Q8R4B8)

>  <pIC50>
7.11

$$$$
>  <molecule>
C=C1C(=O)[C@]23[C@H](O)[C@H]1CC[C@H]2[C@]12C=CCC(C)(C)[C@H]1[C@H](O)[C@@]3(OCCC(=O)NCC(C)C)OC2

>  <system_tested>
NACHT, LRR and PYD domains-containing protein 3 (Mus musculus, UniProt Q8R4B8)

>  <pIC50>
6.86

$$$$
>  <molecule>
C=CCNC(=O)CCO[C@@]12OC[C@]3(C=CCC(C)(C)[C@H]3[C@@H]1O)[C@@H]1CC[C@H]3C(=C)C(=O)[C@]12[C@@H]3O

>  <system_tested>
NACHT, LRR and PYD domains-containing protein 3 (Mus musculus, UniProt Q8R4B8)

>  <pIC50>
6.99

$$$$
